Recorded values, source a collection of fitness landscapes (doi:10.1126/science.1257360).

B1: PhoQ; a variant is named by its letters at X, in order, P23837 (parent)
chain: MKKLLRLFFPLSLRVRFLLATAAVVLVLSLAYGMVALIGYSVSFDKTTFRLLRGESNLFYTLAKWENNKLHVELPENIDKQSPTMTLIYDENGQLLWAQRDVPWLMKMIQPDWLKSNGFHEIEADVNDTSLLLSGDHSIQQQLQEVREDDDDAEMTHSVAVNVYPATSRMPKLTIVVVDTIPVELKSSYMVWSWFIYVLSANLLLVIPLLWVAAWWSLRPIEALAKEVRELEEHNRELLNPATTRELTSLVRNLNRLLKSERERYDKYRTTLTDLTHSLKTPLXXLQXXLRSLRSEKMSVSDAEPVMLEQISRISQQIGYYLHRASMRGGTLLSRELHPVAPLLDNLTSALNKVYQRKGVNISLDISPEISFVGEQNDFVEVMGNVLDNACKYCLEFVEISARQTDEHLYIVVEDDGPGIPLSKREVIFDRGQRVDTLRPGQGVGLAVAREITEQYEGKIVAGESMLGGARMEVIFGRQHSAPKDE

Variants of: B1
METHOD: enrichment ratio after two sorts for PhoP signalling (ratio (wild type AVST 3.29)); higher = more functional
CONDITION_CONTEXT: with PhoP (E. coli)
In all, about 140,000 sequences were measured (“enrichment ratio after two sorts for PhoP signalling”: median about 0, highest 2% from about 11 on). Only a selection was taken, and the highest values are over-represented in it overall.
Please go through the items and note down their enrichment ratio.

Recorded results for 3 variants are shown here.
Read off the recorded enrichment ratio for PLLC ≤ 0.25

Read off the recorded enrichment ratio for VLRH ≤ 0.25

Read off the recorded enrichment ratio for TIAS 11.1

Need enrichment ratio for each of these variants.
1. RNAC
2. PKGP

1. ≤ 0.25
2. 4.39

Need enrichment ratio for each of these variants.
1. GERY
2. SSNF
3. IKKL
4. MCTV
5. SLAL

1. ≤ 0.25
2. 1.62
3. ≤ 0.25
4. ≤ 0.25
5. 10.6
